IC50 values by entry
# Test target: T1, human IL-11Rα on transfected cells (human, UniProt Q14626 23-422)
# T1 sequence: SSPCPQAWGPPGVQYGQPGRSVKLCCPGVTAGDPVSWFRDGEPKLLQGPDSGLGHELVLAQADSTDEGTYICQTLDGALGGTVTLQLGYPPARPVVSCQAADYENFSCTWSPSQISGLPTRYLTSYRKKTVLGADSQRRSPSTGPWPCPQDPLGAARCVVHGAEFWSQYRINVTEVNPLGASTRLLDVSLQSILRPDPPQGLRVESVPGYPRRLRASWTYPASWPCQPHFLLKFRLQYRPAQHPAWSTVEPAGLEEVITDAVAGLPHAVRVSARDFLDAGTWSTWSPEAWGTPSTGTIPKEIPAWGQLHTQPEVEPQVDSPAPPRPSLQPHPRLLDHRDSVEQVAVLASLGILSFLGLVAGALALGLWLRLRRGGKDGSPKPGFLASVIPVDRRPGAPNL
# Measurement protocol: cell-based or functional assay
Give just the number in µg/mL; leave the unit off.

{"columns": ["Binder", "IC50 [µg/mL]"],
 "data": [
  ["hu8E2-TS-58 (antibody, V domains shown) VH: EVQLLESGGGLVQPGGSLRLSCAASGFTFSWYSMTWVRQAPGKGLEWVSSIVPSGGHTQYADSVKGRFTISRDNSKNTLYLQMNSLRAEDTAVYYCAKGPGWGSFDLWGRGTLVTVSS VL: DIQMTQSPSSLSASVGDRVTITCQASQDINNYLNWYQQKPGKAPKLLIYDASNLQTGVPSRFSGSGSGTDFTFTISSLQPEDIATYYCQQYETQQPFFGPGTKVDIK", 0.23]
]}

Given hu8E2-TS-305 (antibody, V domains shown) VH: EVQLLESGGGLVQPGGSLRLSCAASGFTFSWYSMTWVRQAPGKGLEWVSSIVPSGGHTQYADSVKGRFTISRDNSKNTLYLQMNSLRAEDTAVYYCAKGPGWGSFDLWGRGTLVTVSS VL: DIQMTQSPSSLSASVGDRVTITCQASQDVGIYVEWYQQKPGKAPKLLIYDASNLQTGVPSRFSGSGSGTDFTFTISSLQPEDIATYYCQQYDNLSPTFGPGTKVDIK , respond with its IC50. 0.23

Given hu8E2-TS-9 (antibody, V domains shown) VH: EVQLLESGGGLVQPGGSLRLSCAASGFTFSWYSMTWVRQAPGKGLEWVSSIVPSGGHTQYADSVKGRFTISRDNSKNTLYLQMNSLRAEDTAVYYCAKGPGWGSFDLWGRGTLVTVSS VL: DIQMTQSPSSLSASVGDRVTITCQASQDINNYLNWYQQKPGKAPKLLIYDASNLQTGVPSRFSGSGSGTDFTFTISSLQPEDIATYYCQQAEEQSPTFGPGTKVDIK , respond with its IC50. 0.68
